Target: pooled human IgG (human IgG1, 2, 3 and 4)
I'd appreciate it if you could supply Enzyme Activity Endpoint Assay: Fab′2 values for the items below.
The figure you give is taken to be in ng/µL; do not add the unit.

Indicate the recorded Enzyme Activity Endpoint Assay: Fab′2 value for this protein: PRT-407 (protein) MVTSVWTKGVTPPADFTQGEDVFHAPYVANQGWYDITKTFNGKDDLLCGAATAGNMLHWWFDQNKEYIEAYLKKHPEKQKIIFGDQELLDVRKAINTKGSQKNSELFNYFRDKAFPNLSARRLGVMPDLVLDMFINGYYLNVTKTQTTDVNRTYQEKDKRGGIFDAVFTRGDQSKLLTSRHDFKEKGLKEISDLIKQELTEGKALGLSHTYANVRINHVINLWGADFDSDGNLKAIYVTDSDSNASIGMKKYFVGVNSAGKVAISAKEIKEDNIGAQVLGLFTLSTGQDIWNQTN
209

Provide Enzyme Activity Endpoint Assay: Fab′2 value for the following protein: PRT-523 (protein) MITSVWTKGVTPPTDFIKGEDVFHAPYKAGQGWYDITKTFNGKDNLLCGAATAGNMLHWWFDQNKEEIEAYLKKHPEKQKIIFNNQELFDLKAVINTKDSQTNSALFNYFKDKAFPNLSARRLGVFPDLVLDMFINGYYLNVYKTQTTDVNRTYQTKDRRGGIFDAVFTRGVQSKLLTERHDLKNKTLKEISDLIKQELTEGKALGLSHTYANVRINHVINLWGADFDSNGNLEAIYVTDSDTNASIGMKKYFVGVNSAGKVAISAKEIKEDNIGAQVLGLFTLSTGQDIWNQTNLEHHHHHH
17

Consider the protein PRT-271 (protein) MVTSVWTKGVTPPTDFIYGEDVLHAPYKAGQGWYDITKLFNGKDDLLCGAATAGNMLHWWFDQNKEQIENYLKKHPEKQKINFNGEQMFDVKEAIDTKDSQLDSKLFDYFKEKAFPYLSTKHLGVFPDHVIDMFINGYRLSLTNHGPTPVKRGSKDPRGGIFDAVFTRGDQSKLLTNRHDLKNKTLKEISDLIKQELTEGKALGISHTYANVRINHVINLWGADFDAEGNLEAIYVTDSDSNPSIGMKKYFVGVNSSGKVAISAKEIEEDNIGAQVLGLFTLSTGQDIWNQTN and give its recorded Enzyme Activity Endpoint Assay: Fab′2.
563

Could you please provide reported Enzyme Activity Endpoint Assay: Fab′2 for PRT-398 (protein) MVTSVWTKGVTPPADFTQGEDVFHAPYVANQGWYDITKTFNGKDDLLCGAATAGNMLHWWFDQNKEYIEAYLKKHPEKQKIMFGDQELLDVRKAINTKGSQKNSELFNYFRDKAFPNLSARRLGVMPDLVLDMFINGYYLNVTKTQTTDVNRTYQEKDKRGGIFDAVFTRGDQSKLLTSRHDFKEKGLKEISDLIKQELTEGKALGLSHTYANVRINHVINLWGADFDSDGNLKAIYVTDSDSNASIGMKKYDVGVNSAGKVAISAKEIKEDNIGAQVLGLFTLSTGQDIWNQTN ? Thanks!
555

Give the reported value of Enzyme Activity Endpoint Assay: Fab′2 for this record: PRT-561 (protein) MANQEIRYSEETPSTITSVWTKGVTPPTQFIYNEDVFHAPYIANQGWYDITKTFNGKDDLLCGAATAGNMLHWWFDQNKEQIENYLKKHPEKQKINFNGEQMFDVKEAIDTKDSQTDSKLFNYFKDKAFPYLSTKHLGVFPDHVIDMFINGYRLSLTNHGPTPVKRQTKDPRGGIFDAVFTRGDQSKLLTSRHDFKEKTLNEISDLIKQELTEGKALGLSHTYANVRINHVINLWGADFDAEGNLEAIYVTDSDSNASIGMKKYYVGVNSAGKVAISAKEIEGDNIGAQVLGLFTLSTGQDIWQQTNLEHHHHHH
606

For PRT-424 (protein) MTITSVWTKGVTPPTPEDFRYNNEDVLHAPYVANQGWYDITKTFDGKDNLLCGAATAGNMLHWWFDQNKEEIERYLKKHPEKQKIIFNNQELFDVKAAIDTKDSQTNSKLFNYFRDKAFPNLSARQLGVMPDLVLDMFINGYYLNLGKTQSTDVNRPYQDKDKRGGIFDAVFTRGDQTTLLTARHDLKNKGLNEISDLIKQELTEGKALALSHTYANVRINHVINLWGADFDAEGNLIAIYVTDSDANASIGMKKYFVGVNANGKVAISAKKIEGDNIGAQVLGLFTLSLGQDIWQKLS , write its Enzyme Activity Endpoint Assay: Fab′2.
618

Give reported Enzyme Activity Endpoint Assay: Fab′2 value for PRT-543 (protein) MANQEIRYSKNENPNVTIKWVHGIGEPTQSEKEKIEFWWYETTTTKFFNNRKVDPLGDGNQCWAKTDSNMLHWWFVQNEENINQYIEKKNITGKINFNGEQMFDVKEGIDDNQEPEKSYIANTFRTKKAHNLSTKHKGDYIINGLSWYLYGLNNFKNAHGPTPVKKKPKFYGPALFKDVFNRGDGNTPIIVETDFKEYTKKEFEDTLSAALDSKKAIGINIYGSNVDYQHAITLWGAAFDEEENIIAIYVVDNNFKFENRIFPYGIWYEKEGRPYLFNYEINSFVKNRYVGEITTLDKGEAQWQETNLEHHHHHH
0

Quick one: give measured Enzyme Activity Endpoint Assay: Fab′2 for PRT-573 (protein) MANQEIRYSEETPSTITSVWTKGVTPPTQFIQNEDVLHAPYIANQGWYDITKTFNGKDDLLCGAATAGNMLHWWFDQNKEQIENYLKKHPEKQKINFNGEQMFDVKEAIDTKDSQTDSALFSYFKDKAFPYLSTKHLGVFPDHVIDMFINGYRLSLTNHGPTPVKRQTKDPRGGIFDAVFTRGDQSKLLTSRHDFKEKTLNEISQLIKQELTEGKALGLSHTYANVRINHVINLWGADFNAEGNLEAIYVTDSDSNASIGMKKYYVGVNSAGKVAISAKEIEGDNIGAQVLGLFTLSTGQDIWQQTNLEHHHHHH
759
